Numbers sourced from the supplement of paper PMC8882468.

# System: HCI-012 (organoid from a breast cancer xenograft)
# Assay remarks: CTG-3D luminescence at 96 h relative to day-0 seeding control (ratio to day 0); higher = more growth / less cytotoxicity; PDxO 3D drug screen, 96 h, CTG-3D normalised to day-0 seeding control.
# Test conditions: 625 fM; days in culture: 201
Measure: CTG-3D luminescence at 96 h
Give the figure by itself; no unit, no explanation.

CC(C)(C(=O)NCC(F)(F)C(F)(F)F)C(=O)N[C@@H]1C(=O)Nc2ccccc2-c2ccccc21 ... 1.61

// sample CC1(C)CCC(c2ccc(Cl)cc2)=C(CN2CCN(c3ccc(C(=O)NS(=O)(=O)c4ccc(N[C@H](CCN5CCOCC5)CSc5ccccc5)c(S(=O)(=O)C(F)(F)F)c4)cc3)CC2)C1 , its CTG-3D luminescence at 96 h was 1.96

// sample CC(=O)O[C@H]1C(=O)[C@@]2(C)[C@H]([C@H](OC(=O)c3ccccc3)[C@]3(O)C[C@H](OC(=O)[C@H](O)[C@@H](NC(=O)c4ccccc4)c4ccccc4)C(C)=C1C3(C)C)[C@]1(OC(C)=O)CO[C@@H]1C[C@@H]2O , its CTG-3D luminescence at 96 h was 0.564

// sample CC(C)n1nc(-c2ccc3oc(N)nc3c2)c2c(N)ncnc21 , its CTG-3D luminescence at 96 h was 1.73

// sample CCN(c1cc(C#CCN2CCOCC2)cc(C(=O)NCc2c(C)cc(C)[nH]c2=O)c1C)[C@H]1CC[C@H](N(C)CCOC)CC1 , its CTG-3D luminescence at 96 h was 1.64

// sample COc1cc2c(Oc3ccc4[nH]c(C)cc4c3F)ncnc2cc1OCCCN1CCCC1 , its CTG-3D luminescence at 96 h was 1.66

// sample C/C=C1\NC(=O)[C@H]2CSSCC/C=C/[C@H](CC(=O)N[C@H](C(C)C)C(=O)N2)OC(=O)[C@H](C(C)C)NC1=O , its CTG-3D luminescence at 96 h was 1.98

// sample CNC(=O)c1cccc(-c2ccc3c(N4CCOC[C@@H]4C)nc(N4CCOC[C@@H]4C)nc3n2)c1 , its CTG-3D luminescence at 96 h was 1.48

// sample CCc1c2c(nc3ccc(O)cc13)-c1cc3c(c(=O)n1C2)COC(=O)[C@]3(O)CC , its CTG-3D luminescence at 96 h was 1.61

###

Examples of molecules with documented CTG-3D luminescence at 96 h follow.
# Test system: HCI-015 (organoid from a triple-negative breast cancer xenograft)
# Assay remarks: CTG-3D luminescence at 96 h relative to day-0 seeding control (ratio to day 0); higher = more growth / less cytotoxicity; PDxO 3D drug screen, 96 h, CTG-3D normalised to day-0 seeding control.
# Test conditions: 12.5 pM; days in culture: 172
Give the figure by itself; no unit, no explanation.

// sample CC(=O)O[C@H]1C(=O)[C@@]2(C)[C@H]([C@H](OC(=O)c3ccccc3)[C@]3(O)C[C@H](OC(=O)[C@H](O)[C@@H](NC(=O)c4ccccc4)c4ccccc4)C(C)=C1C3(C)C)[C@]1(OC(C)=O)CO[C@@H]1C[C@@H]2O , its CTG-3D luminescence at 96 h was 1.71

// sample Cc1nc(-c2cn3c(n2)-c2ccc(-c4cnn(C(C)(C)C(N)=O)c4)cc2OCC3)n(C(C)C)n1 , its CTG-3D luminescence at 96 h was 2.38

// sample O=C(O)C1(C(=O)O)CCC1.[NH2-].[NH2-].[Pt+2] , its CTG-3D luminescence at 96 h was 2.56
